TESTED ON: SMARCA2 (Homo sapiens, UniProt P51531)
Construct: endogenous in cells
Sequence (P51531 whole entry, species assumed): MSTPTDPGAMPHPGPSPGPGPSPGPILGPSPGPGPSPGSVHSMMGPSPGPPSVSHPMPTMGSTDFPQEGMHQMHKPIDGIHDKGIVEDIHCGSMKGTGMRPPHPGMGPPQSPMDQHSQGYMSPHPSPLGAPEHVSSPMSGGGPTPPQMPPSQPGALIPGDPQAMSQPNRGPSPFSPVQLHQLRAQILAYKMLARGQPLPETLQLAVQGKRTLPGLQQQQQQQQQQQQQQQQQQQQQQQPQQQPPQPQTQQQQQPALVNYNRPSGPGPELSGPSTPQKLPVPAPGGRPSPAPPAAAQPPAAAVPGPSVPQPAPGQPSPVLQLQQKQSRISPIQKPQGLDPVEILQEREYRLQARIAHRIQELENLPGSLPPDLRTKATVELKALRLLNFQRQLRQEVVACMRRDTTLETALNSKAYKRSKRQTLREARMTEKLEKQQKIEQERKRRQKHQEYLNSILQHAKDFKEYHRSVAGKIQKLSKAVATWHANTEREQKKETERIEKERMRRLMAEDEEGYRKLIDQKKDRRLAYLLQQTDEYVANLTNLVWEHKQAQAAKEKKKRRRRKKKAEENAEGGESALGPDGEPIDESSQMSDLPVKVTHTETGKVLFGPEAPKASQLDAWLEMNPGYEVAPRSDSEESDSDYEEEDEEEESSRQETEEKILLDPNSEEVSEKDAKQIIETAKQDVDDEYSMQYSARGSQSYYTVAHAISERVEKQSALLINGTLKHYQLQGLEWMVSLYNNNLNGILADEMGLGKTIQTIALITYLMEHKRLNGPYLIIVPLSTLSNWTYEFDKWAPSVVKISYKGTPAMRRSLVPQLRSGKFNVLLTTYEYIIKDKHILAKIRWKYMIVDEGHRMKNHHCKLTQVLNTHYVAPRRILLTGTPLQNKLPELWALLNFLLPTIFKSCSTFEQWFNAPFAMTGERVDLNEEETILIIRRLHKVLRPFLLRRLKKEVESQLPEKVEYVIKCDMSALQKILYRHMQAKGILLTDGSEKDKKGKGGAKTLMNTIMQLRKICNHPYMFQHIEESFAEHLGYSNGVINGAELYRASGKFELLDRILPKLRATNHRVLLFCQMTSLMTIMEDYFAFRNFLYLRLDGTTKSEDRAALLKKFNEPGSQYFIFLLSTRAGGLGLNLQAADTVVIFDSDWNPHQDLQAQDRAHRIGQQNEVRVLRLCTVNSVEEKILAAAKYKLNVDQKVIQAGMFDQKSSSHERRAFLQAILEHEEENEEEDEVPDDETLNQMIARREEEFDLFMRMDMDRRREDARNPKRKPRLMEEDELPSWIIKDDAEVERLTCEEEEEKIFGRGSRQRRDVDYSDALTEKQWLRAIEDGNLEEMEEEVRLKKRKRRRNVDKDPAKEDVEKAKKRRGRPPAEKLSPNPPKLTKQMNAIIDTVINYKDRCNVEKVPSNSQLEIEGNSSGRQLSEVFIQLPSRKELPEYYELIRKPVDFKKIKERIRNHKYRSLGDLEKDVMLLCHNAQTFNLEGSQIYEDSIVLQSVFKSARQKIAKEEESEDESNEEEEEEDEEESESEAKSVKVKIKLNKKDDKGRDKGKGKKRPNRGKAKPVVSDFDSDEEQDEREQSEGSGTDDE
MEASUREMENT DESCRIPTION: SMARCA2 Cellular Degradation Assay (Western blot analysis on Jess platform)
Format: cell-based
RUN PARAMETERS: ratio DC50 SMARCA4 / DC50 SMARCA2

- COMPOUND: "O=C1CC[C@H](c2ccc(N3CC[C@]4(C3)C[C@@H](N3CC5(CCN(C(=O)C6(c7ccccc7)CCN(c7cnnc(-c8ccccc8O)c7)CC6)CC5)C3)C4)cc2)C(=O)N1 (racemic)"
  TESTED ON: "SMARCA2 (Homo sapiens, UniProt P51531)"
  Fold Selectivity SMARCA4/2: 6
- COMPOUND: "CN(C(=O)C1(OC2CC2)CCN(c2cnnc(-c3ccccc3O)c2)CC1)C1CCN(CCC2CCN(c3ccc(C4CCC(=O)NC4=O)cc3)CC2)CC1 (racemic)"
  TESTED ON: "SMARCA2 (Homo sapiens, UniProt P51531)"
  Fold Selectivity SMARCA4/2: 882
- COMPOUND: "CC1(C(=O)N2CCN(c3ccc(C4CCC(=O)NC4=O)cc3)CC2)CCN(C(=O)C2(c3ccccc3)CCN(c3cnnc(-c4ccccc4O)c3)CC2)CC1 (racemic)"
  TESTED ON: "SMARCA2 (Homo sapiens, UniProt P51531)"
  Fold Selectivity SMARCA4/2: 1

---

TESTED ON: SMARCA4 (Homo sapiens, UniProt P51532)
Construct: endogenous in cells
Sequence (P51532 whole entry, species assumed): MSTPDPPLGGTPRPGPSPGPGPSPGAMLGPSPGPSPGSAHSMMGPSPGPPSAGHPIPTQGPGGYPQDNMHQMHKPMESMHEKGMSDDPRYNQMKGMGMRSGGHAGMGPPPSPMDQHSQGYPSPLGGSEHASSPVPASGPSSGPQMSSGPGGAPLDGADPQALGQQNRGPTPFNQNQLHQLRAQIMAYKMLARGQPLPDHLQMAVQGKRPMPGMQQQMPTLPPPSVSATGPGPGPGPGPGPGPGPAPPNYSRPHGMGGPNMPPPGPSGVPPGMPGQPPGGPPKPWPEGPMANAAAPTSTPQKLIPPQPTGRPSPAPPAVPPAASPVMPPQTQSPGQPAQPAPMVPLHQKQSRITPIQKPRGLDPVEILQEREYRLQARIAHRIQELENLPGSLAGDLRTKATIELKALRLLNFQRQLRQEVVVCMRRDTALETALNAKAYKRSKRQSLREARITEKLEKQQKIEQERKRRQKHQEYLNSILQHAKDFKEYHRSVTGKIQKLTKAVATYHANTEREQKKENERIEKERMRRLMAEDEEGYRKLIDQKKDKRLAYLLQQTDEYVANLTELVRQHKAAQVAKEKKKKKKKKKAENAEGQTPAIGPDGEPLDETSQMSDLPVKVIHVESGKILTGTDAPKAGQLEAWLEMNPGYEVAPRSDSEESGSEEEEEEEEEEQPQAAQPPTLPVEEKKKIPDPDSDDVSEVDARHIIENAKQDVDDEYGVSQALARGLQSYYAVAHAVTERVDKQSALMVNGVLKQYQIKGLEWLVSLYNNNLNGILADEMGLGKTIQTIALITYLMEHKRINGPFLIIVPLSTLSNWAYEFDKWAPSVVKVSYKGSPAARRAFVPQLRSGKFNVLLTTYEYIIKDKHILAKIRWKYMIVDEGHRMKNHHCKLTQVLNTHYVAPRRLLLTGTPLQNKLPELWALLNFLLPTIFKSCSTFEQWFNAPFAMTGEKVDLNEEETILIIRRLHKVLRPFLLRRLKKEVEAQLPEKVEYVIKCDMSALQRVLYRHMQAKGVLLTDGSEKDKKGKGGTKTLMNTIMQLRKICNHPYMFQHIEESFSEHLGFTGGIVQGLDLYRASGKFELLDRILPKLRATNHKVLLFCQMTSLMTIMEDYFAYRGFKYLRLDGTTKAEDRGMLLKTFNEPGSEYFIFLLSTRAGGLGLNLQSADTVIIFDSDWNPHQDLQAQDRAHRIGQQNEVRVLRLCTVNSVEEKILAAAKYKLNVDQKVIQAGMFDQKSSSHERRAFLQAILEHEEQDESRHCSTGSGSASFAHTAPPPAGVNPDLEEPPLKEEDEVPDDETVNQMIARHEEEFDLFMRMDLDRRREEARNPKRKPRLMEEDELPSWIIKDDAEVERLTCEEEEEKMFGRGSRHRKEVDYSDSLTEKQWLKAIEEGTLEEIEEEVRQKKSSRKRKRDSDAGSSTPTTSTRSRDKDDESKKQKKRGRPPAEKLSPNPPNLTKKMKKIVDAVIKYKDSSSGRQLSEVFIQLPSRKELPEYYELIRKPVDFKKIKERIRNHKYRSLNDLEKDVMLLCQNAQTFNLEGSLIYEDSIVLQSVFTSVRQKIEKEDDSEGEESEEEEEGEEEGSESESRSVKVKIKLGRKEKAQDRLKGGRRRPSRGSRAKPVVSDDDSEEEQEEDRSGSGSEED
MEASUREMENT DESCRIPTION: Cellular degradation assay, SMARCA4 (Table 1)
Format: cell-based
Label key: class 1 means DC50 under 100 nM; class 0 means DC50 of 100 nM or more.

- COMPOUND: "O=C1CCC(c2c(F)cc(N3CCC(CN4CC[C@@H](NC(=O)C5(c6ccccc6)CCN(c6cnnc(-c7ccccc7O)c6)CC5)CC45CCC5)CC3)cc2F)C(=O)N1 (mixture of isomers) [Example 188]"
  LABEL: "class 0"
- COMPOUND: "O=C1CC[C@H](c2ccc(N3CCC(C(=O)N4CCC5(CC4)CN(CC4(c6ccccc6)CCN(c6cnnc(-c7ccccc7O)c6)CC4)C5)CC3)cc2)C(=O)N1 [Example 164]"
  LABEL: "class 1"
- COMPOUND: "CCN(C(=O)C1(c2ccccc2)CCN(c2cnnc(-c3ccccc3O)c2)CC1)C1CCN(C(=O)CN2CCN(c3ccc(C4CCC(=O)NC4=O)cc3)CC2)CC1 (racemic) [Example 185]"
  LABEL: "class 0"
- COMPOUND: "COc1ccccc1C1(C(=O)N2CC3(C2)CN(C2COC4(CCN(c5ccc([C@H]6CCC(=O)NC6=O)cc5)CC4)C2)C3)CCN(c2cnnc(-c3ccccc3O)c2)CC1 (mixture of isomers) [Example 106]"
  LABEL: "class 1"
- COMPOUND: "CN(C(=O)C1(Oc2ccccc2)CCN(c2cnnc(-c3ccccc3O)c2)CC1)C1CCN(CC2CCN(c3ccc([C@H]4CCC(=O)NC4=O)cc3)CC2)C2(CC2)C1 (mixture of isomers) [Example 168]"
  LABEL: "class 0"

---

TESTED ON: SMARCA2 (Homo sapiens)
Construct: endogenous in cells
MEASUREMENT DESCRIPTION: SMARCA2 Cellular Degradation Assay (Western blot analysis on Jess platform)
Format: cell-based
RUN PARAMETERS: cellular degradation
PROPERTY NAME: Dmax (%)

- MOLECULE: "CN(C(=O)C1(c2ccccc2)CCN(c2cnnc(-c3ccccc3O)c2)CC1)C1CCN(CCC2CCN(c3ccc(C4CCC(=O)NC4=O)c(F)c3)CC2)CC1 (racemic) [Example 151]"
  TESTED ON: "SMARCA2 (Homo sapiens)"
  UOM: "%"
  VAL: 92.3
- MOLECULE: "COC1(C(=O)N(C)C2CCN(CCC3CCN(c4ccc(C5CCC(=O)NC5=O)cc4)CC3)CC2)CCN(c2cnnc(-c3ccccc3O)c2)CC1 (racemic) [Example 195]"
  TESTED ON: "SMARCA2 (Homo sapiens)"
  UOM: "%"
  VAL: 70
- MOLECULE: "O=C1CC[C@@H](c2ccc(OCC3CCN(CC4CCN(C(=O)C5(c6ccccc6)CCN(c6cnnc(-c7ccccc7O)c6)CC5)CC4)CC3)cc2)C(=O)N1 [Example 35]"
  TESTED ON: "SMARCA2 (Homo sapiens)"
  UOM: "%"
  VAL: 57

---

TESTED ON: SMARCA4 (Homo sapiens, UniProt P51532)
Construct: endogenous in cells
MEASUREMENT DESCRIPTION: Cellular degradation assay, SMARCA4 (Table 1)
Assay type: cell-based

- COMPOUND: "O=C1CC[C@H](c2ccc(N3CCC(CCN4CCC(OCC(F)(F)F)(C(=O)NCC5(c6ccccc6)CCN(c6cnnc(-c7ccccc7O)c6)CC5)CC4)CC3)cc2)C(=O)N1 (racemic)"
  Dmax (%): 73.1
- COMPOUND: "COC1(C(=O)N(C)C2CCN(CCC3CCN(c4ccc([C@H]5CCC(=O)NC5=O)cc4)CC3)CC2)CCN(c2cnnc(-c3ccccc3O)c2)CC1"
  Dmax (%): 28
- COMPOUND: "CC1(NC(=O)C2(c3ccccc3)CCN(c3cnnc(-c4ccccc4O)c3)CC2)CCN(C(=O)CN2CCC(c3ccc(N[C@@H]4CCC(=O)NC4=O)cc3)CC2)CC1 (racemic)"
  Dmax (%): 53.7
- COMPOUND: "O=C1CCC(c2ccc(N3CCC(CN4CCN(C(=O)C5(c6ccccc6)CCN(c6cnnc(-c7ccccc7O)c6)CC5)CC4)CC3)cc2)C(=O)N1 (racemic)"
  Dmax (%): 31.5
- COMPOUND: "O=C1CCC(c2c(F)cc(N3CCC(CN4CC[C@@H](NC(=O)C5(c6ccccc6)CCN(c6cnnc(-c7ccccc7O)c6)CC5)CC45CCC5)CC3)cc2F)C(=O)N1 (mixture of isomers)"
  Dmax (%): 57.8
- COMPOUND: "Cn1c(=O)n(C2CCC(=O)NC2=O)c2cccc(N3CCN(CC(=O)N4CC5(C4)CN(C(=O)C4(c6ccccc6)CCN(c6cnnc(-c7ccccc7O)c6)CC4)C5)CC3)c21 (racemic)"
  Dmax (%): 32.2
- COMPOUND: "O=C1CC[C@H](c2ccc(N3CCC(CCN4CCC(C(=O)NCC5(c6ccccc6)CCN(c6cnnc(-c7ccccc7O)c6)CC5)C5CC54)CC3)cc2)C(=O)N1 (mixture of isomers)"
  Dmax (%): 61.9
- COMPOUND: "O=C1CC[C@H](c2ccc(N3CCC(CN4CC5(CCN(C(=O)C6(c7ccccc7)CCN(c7cnnc(-c8ccccc8O)c7)CC6)C5)C4)CC3)cc2)C(=O)N1"
  Dmax (%): 56.1
- COMPOUND: "CC(C)c1cc(C2(C(=O)N3CC4(CN(CC5CCN(c6ccc(C7CCC(=O)NC7=O)cc6)CC5)C4)C3)CCN(c3cnnc(-c4ccccc4O)c3)CC2)no1 (racemic)"
  Dmax (%): 50.2
- COMPOUND: "CC1(CN2CCC(c3ccc(C4CCC(=O)NC4=O)cc3)CC2)CCN(C(=O)C2(c3ccccc3)CCN(c3cnnc(-c4ccccc4O)c3)CC2)C1 (racemic)"
  Dmax (%): 53
- COMPOUND: "O=C1CCC(c2ccc(N3CCN(C(=O)CC4CCN(C(=O)C5(c6ccccc6)CCN(c6cnnc(-c7ccccc7O)c6)CC5)CC4)CC3)cc2)C(=O)N1 (racemic)"
  Dmax (%): 27.7

---

TESTED ON: SMARCA4 (Homo sapiens, UniProt P51532)
Construct: endogenous in cells
MEASUREMENT DESCRIPTION: Cellular degradation assay, SMARCA4 (Table 1)
Assay type: cell-based
# if value of Dmax reaches 40%, tag Condition met; if it stays below, tag Condition not met

- MOLECULE: "O=C1CC[C@H](c2ccc(N3CCC(CN4CCCC4C4CCCN(C(=O)C5(c6ccccc6)CCN(c6cnnc(-c7ccccc7O)c6)CC5)C4)CC3)cc2)C(=O)N1 (stereo partly drawn) [Example 37]"
  TESTED ON: "SMARCA4 (Homo sapiens, UniProt P51532)"
  LABEL: "Condition not met"
- MOLECULE: "O=C1CC[C@H](c2ccc(N3CCC(CN4CCCC4C4CCN(C(=O)C5(c6ccccc6)CCN(c6cnnc(-c7ccccc7O)c6)CC5)CC4)CC3)cc2)C(=O)N1 (stereo partly drawn) [Example 40]"
  TESTED ON: "SMARCA4 (Homo sapiens, UniProt P51532)"
  LABEL: "Condition not met"
- MOLECULE: "O=C1CC[C@H](c2ccc(N3CCC(CN4CC5CCN(C(=O)C6(c7ccccc7)CCN(c7cnnc(-c8ccccc8O)c7)CC6)CC54)CC3)cc2)C(=O)N1 (stereo partly drawn) [Example 38]"
  TESTED ON: "SMARCA4 (Homo sapiens, UniProt P51532)"
  LABEL: "Condition not met"
- MOLECULE: "O=C1CCC(c2ccc(OC3CCN(C(=O)C4(c5ccccc5)CCN(c5cnnc(-c6ccccc6O)c5)CC4)CC3)cc2)C(=O)N1 (racemic) [Example 4]"
  TESTED ON: "SMARCA4 (Homo sapiens, UniProt P51532)"
  LABEL: "Condition not met"
- MOLECULE: "COc1ccccc1C1(C(=O)N(C)C2CCN(CC3CCN(c4ccc([C@H]5CCC(=O)NC5=O)cc4)CC3)CC2)CCN(c2cnnc(-c3ccccc3O)c2)CC1 [Example 133]"
  TESTED ON: "SMARCA4 (Homo sapiens, UniProt P51532)"
  LABEL: "Condition met"
- MOLECULE: "COC1(C(=O)N2CCC3(CC2)CN(CC2CCN(c4ccc([C@H]5CCC(=O)NC5=O)cc4)CC2)C3)CCN(c2cnnc(-c3ccccc3O)c2)CC1 [Example 120]"
  TESTED ON: "SMARCA4 (Homo sapiens, UniProt P51532)"
  LABEL: "Condition met"
- MOLECULE: "O=C1CCC(c2ccc(N3CC[C@H](CCN4CC5(C4)CN(C(=O)C4(c6ccccc6)CCN(c6cnnc(-c7ccccc7O)c6)CC4)C5)C3)nc2)C(=O)N1 (mixture of isomers) [Example 181]"
  TESTED ON: "SMARCA4 (Homo sapiens, UniProt P51532)"
  LABEL: "Condition met"
- MOLECULE: "CC(C)c1cc(C2(C(=O)N(C)C3CCN(C4COC5(CCN(c6ccc([C@H]7CCC(=O)NC7=O)cc6)CC5)C4)CC3)CCN(c3cnnc(-c4ccccc4O)c3)CC2)no1 (mixture of isomers) [Example 59]"
  TESTED ON: "SMARCA4 (Homo sapiens, UniProt P51532)"
  LABEL: "Condition not met"
- MOLECULE: "Cc1ccnn1C1(C(=O)N(C)C2CCN(CCC3CCN(c4ccc([C@H]5CCC(=O)NC5=O)cc4)CC3)CC2)CCN(c2cnnc(-c3ccccc3O)c2)CC1 (racemic) [Example 78]"
  TESTED ON: "SMARCA4 (Homo sapiens, UniProt P51532)"
  LABEL: "Condition not met"
- MOLECULE: "CN(C(=O)C1(c2ccccc2)CCN(c2cnnc(-c3ccccc3O)c2)CC1)C1CCN(CCC2CCN(c3ccc(C4CCC(=O)NC4=O)cn3)CC2)CC1 (racemic) [Example 69]"
  TESTED ON: "SMARCA4 (Homo sapiens, UniProt P51532)"
  LABEL: "Condition met"
- MOLECULE: "O=C1CCC(c2ccc(OC3CCN(CC4CCN(C(=O)C5(c6ccccc6)CCN(c6cnnc(-c7ccccc7O)c6)CC5)CC4)CC3)cc2)C(=O)N1 (racemic) [Example 12]"
  TESTED ON: "SMARCA4 (Homo sapiens, UniProt P51532)"
  LABEL: "Condition not met"
- MOLECULE: "O=C1CC[C@H](c2ccc(N3CCC(CCN4CCC(Oc5ccccc5)(C(=O)NCC5(c6ccccc6)CCN(c6cnnc(-c7ccccc7O)c6)CC5)CC4)CC3)cc2)C(=O)N1 (racemic) [Example 103]"
  TESTED ON: "SMARCA4 (Homo sapiens, UniProt P51532)"
  LABEL: "Condition met"
- MOLECULE: "COCCN(CC1(c2ccccc2)CCN(c2cnnc(-c3ccccc3O)c2)CC1)C(=O)C1CCN(CCC2CCN(c3ccc([C@@H]4CCC(=O)NC4=O)cc3)CC2)CC1 (racemic) [Example 145]"
  TESTED ON: "SMARCA4 (Homo sapiens, UniProt P51532)"
  LABEL: "Condition met"
- MOLECULE: "O=C1CC[C@H](c2ccc(N3CCC(CN4CC(F)C5(C4)CN(C(=O)C4(c6ccccc6)CCN(c6cnnc(-c7ccccc7O)c6)CC4)C5)CC3)cc2)C(=O)N1 (stereo partly drawn) [Example 25]"
  TESTED ON: "SMARCA4 (Homo sapiens, UniProt P51532)"
  LABEL: "Condition not met"
- MOLECULE: "O=C1CCC(c2c(F)cc(N3CCC(CN4CCC5(CC4)CN(C(=O)C4(Oc6ccccc6)CCN(c6cnnc(-c7ccccc7O)c6)CC4)C5)CC3)cc2F)C(=O)N1 (racemic) [Example 136]"
  TESTED ON: "SMARCA4 (Homo sapiens, UniProt P51532)"
  LABEL: "Condition met"
- MOLECULE: "O=C1CCC(Nc2ccc(C3CCN(CC(=O)N4CCC5(CC4)CN(C(=O)C4(c6ccccc6)CCN(c6cnnc(-c7ccccc7O)c6)CC4)C5)CC3)cc2)C(=O)N1 (racemic) [Example 108]"
  TESTED ON: "SMARCA4 (Homo sapiens, UniProt P51532)"
  LABEL: "Condition met"
- MOLECULE: "CN(C(=O)C1(c2ccncc2)CCN(c2cnnc(-c3ccccc3O)c2)CC1)C1CCN(CCC2CCN(c3ccc(C4CCC(=O)NC4=O)c(F)c3)CC2)CC1 (racemic) [Example 75]"
  TESTED ON: "SMARCA4 (Homo sapiens, UniProt P51532)"
  LABEL: "Condition not met"
- MOLECULE: "CCN(C(=O)C1(c2ccccc2)CCN(c2cnnc(-c3ccccc3O)c2)CC1)C1CCN(CC2CCN(c3ccc([C@H]4CCC(=O)NC4=O)cc3)CC2)CC1 [Example 184]"
  TESTED ON: "SMARCA4 (Homo sapiens, UniProt P51532)"
  LABEL: "Condition met"
- MOLECULE: "CN(CC1(c2ccccc2)CCN(c2cnnc(-c3ccccc3O)c2)CC1)C1CCN(C(=O)C2CCN(c3ccc(C4CCC(=O)NC4=O)cc3)CC2)CC1 (racemic) [Example 142]"
  TESTED ON: "SMARCA4 (Homo sapiens, UniProt P51532)"
  LABEL: "Condition met"
- MOLECULE: "O=C1CC[C@H](c2ccc(N3CCC(CCN4CCC(S(=O)(=O)NCC5(c6ccccc6)CCN(c6cnnc(-c7ccccc7O)c6)CC5)CC4)CC3)cc2)C(=O)N1 (racemic) [Example 118]"
  TESTED ON: "SMARCA4 (Homo sapiens, UniProt P51532)"
  LABEL: "Condition met"
- MOLECULE: "O=C1CCC(c2ccc(N3C[C@H]4CN(CC(=O)N5CCC6(CC5)CN(C(=O)C5(c7ccccc7)CCN(c7cnnc(-c8ccccc8O)c7)CC5)C6)C[C@@H]4C3)cc2)C(=O)N1 (mixture of isomers) [Example 150]"
  TESTED ON: "SMARCA4 (Homo sapiens, UniProt P51532)"
  LABEL: "Condition met"
